- Assayed System: CCR2 (Homo sapiens (Human))
- Sequence (P41597 whole entry, species assumed): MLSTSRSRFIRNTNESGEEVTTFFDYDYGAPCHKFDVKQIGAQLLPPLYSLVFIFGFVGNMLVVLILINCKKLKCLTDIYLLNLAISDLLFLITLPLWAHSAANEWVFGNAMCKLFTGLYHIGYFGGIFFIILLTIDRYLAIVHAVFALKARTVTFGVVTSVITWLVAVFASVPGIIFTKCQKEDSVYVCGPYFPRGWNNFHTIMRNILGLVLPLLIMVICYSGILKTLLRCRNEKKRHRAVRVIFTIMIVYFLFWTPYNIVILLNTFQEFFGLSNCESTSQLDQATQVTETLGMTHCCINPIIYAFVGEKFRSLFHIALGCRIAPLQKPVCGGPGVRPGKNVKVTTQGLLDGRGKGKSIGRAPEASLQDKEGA
- Procedure Summary: Calcium activity on FLIPR Tetra in HEK-Gqi5 cells stably expressing CCR2
- Condition Summary: FLIPR Tetra calcium assay
Recorded Metric: IC50 (nM)

{"Structure Smiles String": "O=S(=O)(Nc1cc(Cl)c(Cl)cc1NS(=O)(=O)c1cccs1)c1ccc(Cl)c(Cl)c1", "Recorded Metric": "IC50", "Reported Result": 394}
{"Structure Smiles String": "O=S(=O)(Nc1cc(Cl)c(Cl)cc1NS(=O)(=O)c1ccc(Cl)cc1F)c1cccs1", "Recorded Metric": "IC50", "Reported Result": 361}
{"Structure Smiles String": "COC(=O)c1sccc1S(=O)(=O)Nc1ccc(Cl)cc1NS(=O)(=O)c1cc2ccccc2o1", "Recorded Metric": "IC50", "Reported Result": 246}
